All values here come from PubChem BioAssay (NCI).

Test system: UACC-62 melanoma
Test: NCI-60 one-dose screen, 48 h (100 = growth as untreated, 0 = no growth, -100 = all killed)
Settings: 10 µM unless noted
About 83,000 compounds went through this panel and 20% of them were active in at least one assay; those are over-represented in the sample as a whole.
Field: label. Allowed values: YES (growth < 80%) or NO (growth >= 80%).

Molecule	Label value
Fc1ccc(N/N=C/c2ccc(-n3cccn3)cc2)cc1	YES
COc1cc(-c2cn(-c3ccc(Cl)c(Cl)c3)c(=O)[nH]2)cc(OC)c1OC	NO
CC(C)(C#N)c1cc(F)cc(C(=O)Nc2cc(Nc3ncccc3-c3ncnc4nc[nH]c34)ccc2F)c1	YES
COc1cc(C2=NN(c3ccccc3)C(c3cccc(Nc4ccnc5cc(C(F)(F)F)ccc45)c3)C2)cc(OC)c1OC (stereo not given)	NO
CN(CCC#N)C(=O)Nc1ccccc1	NO

* * *

Tested on: SK-OV-3 ovarian
Assay: NCI-60 one-dose screen, 48 h
Settings: 10 µM unless noted
Procedure: Growth inhibition of the SK-OV-3 human tumor cell line is measured as a screen for anti-cancer activity. Cells are grown in 96 well plates and exposed to the test compound for 48 hours. Compounds are tested at a single concentration, which is 10^-5 M for most compounds. The reported endpoint is percent growth (GI% or GIPRCNT), where numbers from 0 - 100% represent growth inhibition, and numbers from -100% - 0 represent cell death. For example, a value of 40 represents 60% growth inhibition. […]
About 83,000 compounds went through this panel and 20% of them were active in at least one assay; those are over-represented in the sample as a whole. Calls of active or inactive are those of the source. Rule for the calls: active = growth percent below 10; inactive = the rest.
Possible outcomes: yes (active), no (inactive)

Compound	Tested on	Label value
O=c1cc(/C=N\Nc2nc(-c3ccc(Cl)cc3Cl)cs2)c2cc(Cl)ccc2o1	SK-OV-3 ovarian	no
CC1CCN(CCCCCOc2ccc3oc4cc(Cl)ccc4c(=O)c3c2)CC1	SK-OV-3 ovarian	no
C=C(C)[C@@H]1CC[C@]2(C(=O)OCCCC[P+](c3ccccc3)(c3ccccc3)c3ccccc3)CC[C@]3(C)[C@H](CC[C@@H]4[C@@]5(C)CC[C@H](OC(=O)C(Cl)Cl)C(C)(C)[C@@H]5CC[C@]43C)[C@@H]12	SK-OV-3 ovarian	yes
CC(=O)OCC1SC(OC(C)=O)C(NC(=O)/C=C/CCl)C(OC(C)=O)C1OC(C)=O (centres undefined)	SK-OV-3 ovarian	no

* * *

Test system: 786-0 renal
Experiment: NCI-60 one-dose screen, 48 h (100 = growth as untreated, 0 = no growth, -100 = all killed)
Conditions: 10 µM unless noted
Compounds without any hit were thinned out: in the full panel of roughly 83,000, 20% have a hit.
Listing of entries alongside the reported growth.
Attribute measured: growth (%)

Smiles string	Attribute measured	Endpoint value
N#C/C(=C/c1ccc(O)c([N+](=O)[O-])c1)c1nc(-c2ccc([N+](=O)[O-])cc2)cs1	growth	51.9
CC1CCN(CCCCCOc2ccc3oc4ccccc4c(=O)c3c2)CC1	growth	75.7
CCCCn1c2cc(OCc3cn(-c4ccc(Cl)cc4)nn3)ccc2c2ccnc(C)c21	growth	-10.3
C=C(C)[C@@H]1CC[C@]2(C(=O)O)CC[C@]3(C)[C@H](CC[C@@H]4[C@@]5(C)C[C@@H](CC#Cc6ccc(Cl)cc6)C(=O)C(C)(C)[C@@H]5CC[C@]43C)[C@@H]12	growth	60.5
Cc1cc2ccccc2c[n+]1CC(=O)c1ccc(-c2ccccc2)cc1	growth	65.9
C=C1C(=O)O[C@H]2[C@H]1CC/C(C=Nc1c(N)cc(F)cc1Br)=C\CC[C@@]1(C)O[C@@H]21	growth	43.8
C=C1C(=O)O[C@H]2[C@H]1CC/C(COC(=O)CCCCCCCC(=O)OC/C1=C/CC[C@@]3(C)O[C@H]3[C@H]3OC(=O)C(=C)[C@@H]3CC1)=C\CC[C@@]1(C)O[C@@H]21	growth	4.86
CC[C@H](Nc1ncnc2nc[nH]c12)c1nc2cccc(CC(=O)c3ccc(C(=O)NO)cc3)c2c(=O)n1-c1ccccc1	growth	98.9
